# experimentalSystem: UniProtKB P41145
# assayExplanation: biochemical
# Format: cell-based, CHO
In this section, each of the molecules is paired with its reported Ki.
measuredProperty: Ki

[[record]]
givensmiles = "CC[C@H](C)[C@H](NC(=O)[C@H](CCCNC(=N)N)NC(=O)[C@H](CCCNC(=N)N)NC(=O)[C@H](CC(C)C)NC(=O)[C@H](Cc1ccccc1)NC(=O)CNC(=O)CNC(=O)[C@@H](N)Cc1ccc(O)cc1)C(=O)N[C@@H](CCCNC(=N)N)C(=O)N1CCC[C@H]1C(=O)N[C@@H](CCCCN)C(=O)N[C@@H](CC(C)C)C(=O)N[C@@H](CCCCN)C(=O)O"
measuredproperty = "Ki"
result = "0.23 nM"

[[record]]
givensmiles = "CC[C@H](C)[C@H](NC(=O)[C@H](CCCNC(=N)N)NC(=O)[C@H](CCCNC(=N)N)NC(=O)[C@H](CC(C)C)NC(=O)[C@H](Cc1ccccc1)NC(=O)[C@@H]1CCCN1C(=O)CNC(=O)[C@@H](N)Cc1ccc(O)cc1)C(=O)N[C@@H](CCCNC(=N)N)C(=O)N1CCC[C@H]1C(=O)N[C@@H](CCCCN)C(N)=O"
measuredproperty = "Ki"
result = "2.4 nM"


* * *

# experimentalSystem: Delta-type opioid receptor (Homo sapiens, UniProt P41143)
# Sequence (P41143 whole entry): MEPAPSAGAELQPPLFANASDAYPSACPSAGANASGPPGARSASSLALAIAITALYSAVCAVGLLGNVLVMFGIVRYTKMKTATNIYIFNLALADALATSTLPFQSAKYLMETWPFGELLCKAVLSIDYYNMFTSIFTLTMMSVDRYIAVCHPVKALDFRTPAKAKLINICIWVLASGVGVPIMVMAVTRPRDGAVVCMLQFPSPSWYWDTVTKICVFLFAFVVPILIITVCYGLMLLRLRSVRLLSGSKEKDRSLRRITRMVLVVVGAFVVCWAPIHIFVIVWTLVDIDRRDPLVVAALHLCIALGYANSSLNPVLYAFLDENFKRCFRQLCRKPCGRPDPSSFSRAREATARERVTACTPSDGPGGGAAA
# assayExplanation: In vitro binding affinity to human Opioid receptor delta 1 on CHO cell membranes using [3H]diprenorphine displacement.
pKi: −log10 of the molar value. Non-standard residues stand in square brackets, D forms with d. Residues, ends and D or L forms follow the SMILES beside them. Nle = CCCC[C@H](N)C(=O)O
measuredProperty: pKi

[[record]]
compound = "CC(C)C[C@H](NC(=O)[C@H](Cc1ccccc1)NC(=O)[C@@H]1CCCN1C(=O)CNC(=O)[C@@H](N)Cc1ccc(O)cc1)C(=O)N[C@@H](CCCN=C(N)N)C(=O)N[C@@H](CCCN=C(N)N)C(=O)N[C@@H](CCCN=C(N)N)C(N)=O"
measuredproperty = "pKi"
operator = "<"
result = 4.00

[[record]]
compound = "CC[C@H](C)[C@H](NC(=O)[C@H](CCCNC(=N)N)NC(=O)[C@H](CCCNC(=N)N)NC(=O)[C@H](CC(C)C)NC(=O)[C@H](Cc1ccccc1)NC(=O)CNC(=O)CNC(=O)[C@@H](N)Cc1ccc(O)cc1)C(=O)N[C@@H](CCCNC(=N)N)C(=O)N1CCC[C@H]1C(=O)O"
measuredproperty = "pKi"
operator = "="
result = 7.62

[[record]]
compound = "CC(C)C[C@H](NC(=O)[C@H](Cc1ccccc1)NC(=O)CNC(=O)CNC(=O)[C@@H](N)Cc1ccc(O)cc1)C(=O)N[C@@H](CCCNC(=N)N)C(=O)N[C@@H](CCCNC(=N)N)C(=O)O"
measuredproperty = "pKi"
operator = "="
result = 8.01

[[record]]
compound = "CCCC[C@H](NC(=O)[C@H](CC(C)C)NC(=O)[C@H](Cc1ccccc1)NC(=O)[C@@H]1CCCN1C(=O)CNC(=O)[C@@H](N)Cc1ccc(O)cc1)C(=O)N[C@@H](CCCN=C(N)N)C(N)=O (H-YGPFL[Nle]R-NH2)"
measuredproperty = "pKi"
operator = "="
result = 4.85


* * *

# experimentalSystem: Kappa-type opioid receptor (Homo sapiens)
# Sequence (P41145 whole entry): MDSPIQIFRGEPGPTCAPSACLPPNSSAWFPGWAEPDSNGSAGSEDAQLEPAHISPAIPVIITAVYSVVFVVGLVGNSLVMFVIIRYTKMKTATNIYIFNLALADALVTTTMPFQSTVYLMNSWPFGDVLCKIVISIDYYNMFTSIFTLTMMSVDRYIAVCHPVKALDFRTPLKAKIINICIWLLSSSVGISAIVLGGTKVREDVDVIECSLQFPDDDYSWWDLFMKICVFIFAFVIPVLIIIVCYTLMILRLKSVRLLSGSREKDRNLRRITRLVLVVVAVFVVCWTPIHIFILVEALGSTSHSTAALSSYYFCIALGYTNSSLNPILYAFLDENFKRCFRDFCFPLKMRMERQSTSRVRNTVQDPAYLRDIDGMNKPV
# assayExplanation: biochemical
# Assay type: cell-based, CHO
# conditionsUsed: cho
measuredProperty: log10 of Ki (log10 of the value in nM)

[[record]]
givensmiles = "CC(C)C[C@H](NC(=O)[C@H](Cc1ccccc1)NC(=O)[C@@H]1CCCN1C(=O)CNC(=O)[C@@H](N)Cc1ccc(O)cc1)C(=O)N[C@@H](CCCNC(=N)N)C(=O)N[C@@H](CCCNC(=N)N)C(=O)N[C@@H](CCCNC(=N)N)C(=O)N[C@@H](CCCNC(=N)N)C(=O)N1CCC[C@H]1C(=O)N[C@@H](CCCCN)C(N)=O"
result = -0.36

[[record]]
givensmiles = "CC[C@H](C)[C@H](NC(=O)[C@H](CCCNC(=N)N)NC(=O)[C@H](CCCNC(=N)N)NC(=O)[C@H](CC(C)C)NC(=O)[C@H](Cc1ccccc1)NC(=O)[C@@H]1CCCN1C(=O)CNC(=O)[C@@H](N)Cc1ccc(O)cc1)C(=O)N[C@@H](CCCNC(=N)N)C(=O)N[C@@H](CCCNC(=N)N)C(N)=O"
result = 0.53

[[record]]
givensmiles = "CC[C@H](C)[C@H](NC(=O)[C@H](CCCNC(=N)N)NC(=O)[C@H](CCCNC(=N)N)NC(=O)[C@H](CC(C)C)NC(=O)[C@H](Cc1ccccc1)NC(=O)[C@@H]1CCCN1C(=O)CNC(=O)[C@@H](N)Cc1ccc(O)cc1)C(=O)N[C@@H](CCCNC(=N)N)C(=O)N[C@@H](CCCNC(=N)N)C(=O)N[C@@H](CCCCN)C(N)=O"
result = 0.08

[[record]]
givensmiles = "CC[C@H](C)[C@H](NC(=O)[C@H](CCCNC(=N)N)NC(=O)[C@H](CCCNC(=N)N)NC(=O)[C@H](CC(C)C)NC(=O)[C@H](Cc1ccccc1)NC(=O)[C@@H]1CCCN1C(=O)CNC(=O)[C@@H](N)Cc1ccc(O)cc1)C(=O)N[C@@H](CCCNC(=N)N)C(=O)N1CCC[C@H]1C(=O)N[C@@H](CCCCN)C(=O)O"
result = 1.62

[[record]]
givensmiles = "CC[C@H](C)[C@H](NC(=O)[C@H](CCCN=C(N)N)NC(=O)[C@H](CCCN=C(N)N)NC(=O)[C@H](CC(C)C)NC(=O)[C@H](Cc1ccccc1)NC(=O)[C@@H]1CCCN1C(=O)CNC(=O)[C@@H](N)Cc1ccc(O)cc1)C(=O)N[C@@H](CCCN=C(N)N)C(=O)N1CCC[C@H]1C(N)=O"
result = 1.00


* * *

# experimentalSystem: Delta-type opioid receptor (Homo sapiens)
# assayExplanation: In vitro binding affinity to human Opioid receptor delta 1 on CHO cell membranes using [3H]diprenorphine displacement.
# conditionsUsed: cho
API: label(entry) gives Satisfied if the entry's Ki is strictly smaller than 10 µM; on equality or larger values it gives Not satisfied.

[[record]]
givensmiles = "CC[C@H](C)[C@H](NC(=O)[C@H](CCCNC(=N)N)NC(=O)[C@H](CCCNC(=N)N)NC(=O)[C@H](CC(C)C)NC(=O)[C@H](Cc1ccccc1)NC(=O)[C@@H]1CCCN1C(=O)CNC(=O)[C@@H](N)Cc1ccc(O)cc1)C(=O)N[C@@H](CCCNC(=N)N)C(=O)N[C@@H](CCCNC(=N)N)C(N)=O"
experimentalsystem = "Delta-type opioid receptor (Homo sapiens)"
answerlabel = "Satisfied"

[[record]]
givensmiles = "CC[C@H](C)[C@H](NC(=O)[C@H](CCCNC(=N)N)NC(=O)[C@H](CCCNC(=N)N)NC(=O)[C@H](CC(C)C)NC(=O)[C@H](Cc1ccccc1)NC(=O)[C@@H]1CCCN1C(=O)CNC(=O)[C@@H](N)Cc1ccc(O)cc1)C(=O)N[C@@H](CCCNC(=N)N)C(=O)N1CCC[C@H]1C(=O)N[C@@H](CCCCN)C(=O)O"
experimentalsystem = "Delta-type opioid receptor (Homo sapiens)"
answerlabel = "Not satisfied"

[[record]]
givensmiles = "CC(C)C[C@H](NC(=O)[C@H](Cc1ccccc1)NC(=O)[C@@H]1CCCN1C(=O)CNC(=O)[C@@H](N)Cc1ccc(O)cc1)C(=O)N[C@@H](CCCNC(=N)N)C(=O)N[C@@H](CCCNC(=N)N)C(=O)N[C@@H](CCCNC(=N)N)C(=O)N[C@@H](CCCNC(=N)N)C(=O)N1CCC[C@H]1C(=O)N[C@@H](CCCCN)C(N)=O"
experimentalsystem = "Delta-type opioid receptor (Homo sapiens)"
answerlabel = "Satisfied"

[[record]]
givensmiles = "CC[C@H](C)[C@H](NC(=O)[C@H](CCCN=C(N)N)NC(=O)[C@H](CCCN=C(N)N)NC(=O)[C@H](CC(C)C)NC(=O)[C@H](Cc1ccccc1)NC(=O)[C@@H]1CCCN1C(=O)CNC(=O)[C@@H](N)Cc1ccc(O)cc1)C(=O)N[C@@H](CCCN=C(N)N)C(=O)N1CCC[C@H]1C(N)=O"
experimentalsystem = "Delta-type opioid receptor (Homo sapiens)"
answerlabel = "Not satisfied"

[[record]]
givensmiles = "CC[C@H](C)[C@H](NC(=O)[C@H](CCCNC(=N)N)NC(=O)[C@H](CCCNC(=N)N)NC(=O)[C@H](CC(C)C)NC(=O)[C@H](Cc1ccccc1)NC(=O)[C@@H]1CCCN1C(=O)CNC(=O)[C@@H](N)Cc1ccc(O)cc1)C(=O)N[C@@H](CCCNC(=N)N)C(=O)N[C@@H](CCCNC(=N)N)C(=O)N[C@@H](CCCCN)C(N)=O"
experimentalsystem = "Delta-type opioid receptor (Homo sapiens)"
answerlabel = "Satisfied"


* * *

# experimentalSystem: UniProt:P35372
# Sequence (P35372 whole entry): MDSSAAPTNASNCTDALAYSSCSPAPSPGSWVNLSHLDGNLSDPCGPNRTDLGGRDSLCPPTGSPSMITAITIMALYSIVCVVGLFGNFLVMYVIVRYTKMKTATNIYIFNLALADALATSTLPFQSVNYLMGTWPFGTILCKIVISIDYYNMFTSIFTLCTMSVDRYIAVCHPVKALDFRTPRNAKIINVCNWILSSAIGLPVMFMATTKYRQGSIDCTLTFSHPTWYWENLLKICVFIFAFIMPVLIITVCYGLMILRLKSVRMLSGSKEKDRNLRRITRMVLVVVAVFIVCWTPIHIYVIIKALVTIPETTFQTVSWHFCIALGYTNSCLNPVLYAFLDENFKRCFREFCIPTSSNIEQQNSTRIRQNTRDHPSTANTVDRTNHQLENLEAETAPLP
# assayExplanation: biochemical
# Assay type: cell-based, CHO
# conditionsUsed: cho
pKi: −log10 of the molar value.
As shown below, each of these compounds has a reported pKi value.
measuredProperty: pKi

[[record]]
givensmiles = "CC[C@H](C)[C@H](NC(=O)[C@H](CCCNC(=N)N)NC(=O)[C@H](CCCNC(=N)N)NC(=O)[C@H](CC(C)C)NC(=O)[C@H](Cc1ccccc1)NC(=O)[C@@H]1CCCN1C(=O)CNC(=O)[C@@H](N)Cc1ccc(O)cc1)C(=O)N[C@@H](CCCNC(=N)N)C(=O)N[C@@H](CCCNC(=N)N)C(N)=O"
measuredproperty = "pKi"
result = 5.63

[[record]]
givensmiles = "CC[C@H](C)[C@H](NC(=O)[C@H](CCCN=C(N)N)NC(=O)[C@H](CCCN=C(N)N)NC(=O)[C@H](CC(C)C)NC(=O)[C@H](Cc1ccccc1)NC(=O)[C@@H]1CCCN1C(=O)CNC(=O)[C@@H](N)Cc1ccc(O)cc1)C(=O)N[C@@H](CCCN=C(N)N)C(=O)N1CCC[C@H]1C(N)=O"
measuredproperty = "pKi"
result = 5.21

[[record]]
givensmiles = "CC[C@H](C)[C@H](NC(=O)[C@H](CCCNC(=N)N)NC(=O)[C@H](CCCNC(=N)N)NC(=O)[C@H](CC(C)C)NC(=O)[C@H](Cc1ccccc1)NC(=O)[C@@H]1CCCN1C(=O)CNC(=O)[C@@H](N)Cc1ccc(O)cc1)C(=O)N[C@@H](CCCNC(=N)N)C(=O)N[C@@H](CCCNC(=N)N)C(=O)N[C@@H](CCCCN)C(N)=O"
measuredproperty = "pKi"
result = 5.78

[[record]]
givensmiles = "CC(C)C[C@H](NC(=O)[C@H](Cc1ccccc1)NC(=O)[C@@H]1CCCN1C(=O)CNC(=O)[C@@H](N)Cc1ccc(O)cc1)C(=O)N[C@@H](CCCNC(=N)N)C(=O)N[C@@H](CCCNC(=N)N)C(=O)N[C@@H](CCCNC(=N)N)C(=O)N[C@@H](CCCNC(=N)N)C(=O)N1CCC[C@H]1C(=O)N[C@@H](CCCCN)C(N)=O"
measuredproperty = "pKi"
result = 5.56

[[record]]
givensmiles = "CC[C@H](C)[C@H](NC(=O)[C@H](CCCNC(=N)N)NC(=O)[C@H](CCCNC(=N)N)NC(=O)[C@H](CC(C)C)NC(=O)[C@H](Cc1ccccc1)NC(=O)[C@@H]1CCCN1C(=O)CNC(=O)[C@@H](N)Cc1ccc(O)cc1)C(=O)N[C@@H](CCCNC(=N)N)C(=O)N1CCC[C@H]1C(=O)N[C@@H](CCCCN)C(=O)O"
measuredproperty = "pKi"
result = 4.82

